- System: Aspergillus niger
- protocol-summary: Antifungal activity against Aspergillus niger at 30 ug/ml by paper disc method
- Format: functional
- applied-conditions: read-out: IZ
Each entry below carries its reported zone of inhibition at 30 µg/mL.
Report only the number, with the unit mm understood.

Use the examples below as a reference point.
1. COC1=CC(=O)C[C@@H](C)[C@]12Oc1c(Cl)c(OC)cc(OC)c1C2=O [GRISEOFULVIN] :: 23.1
2. COc1ccc(Cl)c(-c2nnc3sc(-c4ccnc(F)c4)nn23)c1 :: 20.5
3. Cc1cc(-c2nn3c(-c4ccoc4C)nnc3s2)c2ccccc2n1 :: 17.4
4. Cc1occc1-c1nnc2n1NC(c1ccco1)S2 (stereo unspecified) :: 14.2
5. COc1ccc(Cl)c(-c2nnc3n2NC(c2ccc([N+](=O)[O-])o2)S3)c1 (stereo unspecified) :: 14.5

Data request: Param item = COc1ccc(Cl)c(-c2nnc3sc(-c4ccnc5ccccc45)nn23)c1 ; retrieve measured zone of inhibition at 30 µg/mL.
Data returned: 19.1

Data request: Param item = Cc1occc1-c1nnc2n1NC(c1ccc[nH]1)S2 (stereo unspecified) ; retrieve measured zone of inhibition at 30 µg/mL.
Data returned: 13.2

Data request: Param item = COc1ccc(Cl)c(-c2nnc3sc(Cc4c[nH]c5ccc(OC)cc45)nn23)c1 ; retrieve measured zone of inhibition at 30 µg/mL.
Data returned: 12.2

Data request: Param item = COc1ccc(Cc2nnc(S)n2N)cc1OC ; retrieve measured zone of inhibition at 30 µg/mL.
Data returned: 10.7

Data request: Param item = COc1ccc2[nH]cc(Cc3nn4c(Cc5ccc(OC)c(OC)c5)nnc4s3)c2c1 ; retrieve measured zone of inhibition at 30 µg/mL.
Data returned: 10.4

====

- System: Aspergillus niger
- protocol-summary: Antifungal activity against Aspergillus niger at 30 ug/ml by paper disc method
- Format: functional
- applied-conditions: read-out: IZ
Each entry below carries its reported zone of inhibition at 30 µg/mL.
Report only the number, with the unit mm understood.

Use the examples below as a reference point.
1. Cc1occc1-c1nnc2sc(-c3cc(-c4ccccc4)nc4ccccc34)nn12 :: 17.7
2. Cc1occc1-c1nnc2sc(Cc3c[nH]c4ccccc34)nn12 :: 13.2
3. COc1ccc(Cc2nnc3sc(Cc4c[nH]c5ccccc45)nn23)cc1OC :: 11.1
4. Cc1occc1-c1nnc2n1NC(c1ccc([N+](=O)[O-])o1)S2 (stereo unspecified) :: 15.3
5. COc1ccc(Cl)c(-c2nnc3sc(-c4cc(O)nc(O)c4)nn23)c1 :: 13.6

Consider the record given below.
Data request: Param item = Cc1occc1-c1nnc2n1NC(c1cccn1C)S2 (stereo unspecified) ; retrieve measured zone of inhibition at 30 µg/mL.
Data returned: 13.7

====

- System: Bacillus subtilis
- protocol-summary: Antibacterial activity against Bacillus subtilis at 20 ug/ml by agar plate diffusion technique
- Format: functional
- applied-conditions: read-out: IZ
The label depends only on zone of inhibition at 20 µg/mL: T if it is at least 10 mm, F if it is smaller.

Check out these entries, answers already filled in.
1. Cc1occc1-c1nnc2sc(-c3ccnc4ccccc34)nn12 :: T
2. COc1ccc(Cc2nnc3sc(-c4ccnc(Cl)c4)nn23)cc1OC :: T
3. COc1ccc2[nH]c(C)c(Cc3nn4c(Cc5ccc(OC)c(OC)c5)nnc4s3)c2c1 :: F
4. COc1ccc(Cl)c(-c2nnc3sc(Cc4c[nH]c5ccccc45)nn23)c1 :: F
5. COc1ccc2[nH]cc(Cc3nn4c(Cc5ccc(OC)c(OC)c5)nnc4s3)c2c1 :: F
6. Cc1occc1-c1nnc2n1NC(c1ccc[nH]1)S2 (stereo not drawn) :: T
7. Cc1occc1-c1nnc2sc(-c3ccnc(F)c3)nn12 :: T
8. Cc1occc1-c1nnc(S)n1N :: F

Data request: Decide: zone of inhibition at 20 µg/mL of Cc1occc1-c1nnc2sc(Cc3c[nH]c4ccccc34)nn12 >= 10 mm?
Data returned: F

Data request: Decide: zone of inhibition at 20 µg/mL of Cc1occc1-c1nnc2sc(-c3ccnc(Cl)c3)nn12 >= 10 mm?
Data returned: T

Data request: Decide: zone of inhibition at 20 µg/mL of COc1ccc(Cc2nnc(S)n2N)cc1OC >= 10 mm?
Data returned: F

Data request: Decide: zone of inhibition at 20 µg/mL of Cc1occc1-c1nnc2n1NC(c1ccc([N+](=O)[O-])o1)S2 (stereo not drawn) >= 10 mm?
Data returned: T

Data request: Decide: zone of inhibition at 20 µg/mL of COc1ccc(Cc2nnc3n2NC(c2ccc([N+](=O)[O-])o2)S3)cc1OC (stereo not drawn) >= 10 mm?
Data returned: F

Data request: Decide: zone of inhibition at 20 µg/mL of COc1ccc(Cl)c(-c2nnc3sc(-c4ccnc5ccccc45)nn23)c1 >= 10 mm?
Data returned: T

Data request: Decide: zone of inhibition at 20 µg/mL of COc1ccc(Cl)c(-c2nnc3sc(-c4cc(-c5ccccc5)nc5ccccc45)nn23)c1 >= 10 mm?
Data returned: T
